- TEST_SYSTEM: dog EphA2 (Dog)
- RUN_DESCRIPTION: FP direct binding, selectivity
Numbered stars: 1 amine (or outer) side, 2 acyl side, 3 side chain; on linkers, the order of the positions; unused ones are H or OH. Bridge positions count the residues as written; N and C are the ends. Square brackets hold non-standard residues; d marks the D form. Ends that are not written are not given here. 1Nal = N[C@@H](Cc1cccc2ccccc12)C(=O)O; TBMB = c1c(C[*:1])cc(C[*:3])cc1C[*:2]; hArg = N=C(N)NCCCC[C@H](N)C(=O)O; Tle = CC(C)(C)[C@H](N)C(=O)O; AF488 = AlexaFluor488 label; Aib = CC(C)(N)C(=O)O; βAla = NCCC(=O)O; Sar = CNCC(=O)O
PROPERTY_NAME: Kd (nM)
Answer in nM, number only, no unit symbol.

## Task Kd for {AF488-βAla}-[Sar][Sar][Sar][Sar][Sar][Sar][Sar][Sar][Sar][Sar]H[dD]VPCP[1Nal]G[Aib]F[1Nal]CP[Tle]NR[Aib]GC (linker 15-22-29 via TBMB) [Compound 144] ?
## Result 4.39

## Task How about {AF488-βAla}-[Sar][Sar][Sar][Sar][Sar][Sar][Sar][Sar][Sar][Sar]H[dD]VPC[Aib][1Nal]G[Aib]F[1Nal]CP[Tle]NR[Aib][dD]C (linker 15-22-29 via TBMB) [Compound 141] ?
## Result 13.3

## Task How about {AF488-βAla}-[Sar][Sar][Sar][Sar][Sar][Sar][Sar][Sar][Sar][Sar]H[dD]VPC[Aib][1Nal]G[Aib]F[1Nal]CP[Tle]N[hArg]P[dD]C (linker 15-22-29 via TBMB) [Compound 140] ?
## Result 8.7
